System: Fibroblast
Test: Multiplex assay against human fibroblast
Assay type: toxicity, cell-based
Settings: 12 h, 10 µM, compound concentration 10 uM, replicate 1
Values of Population Membrane Permeable-Phenotype (%) strictly less than 6% map to 1.0, and values of at least 6% map to 0.0.

{"columns": ["smiles-entry", "system", "class-assignment"],
 "data": [
  ["C=CC(=O)Nc1cc(-n2c(=O)ccc3cnc4ccc(-c5ccc(NS(C)(=O)=O)cc5)cc4c32)ccc1C", "Fibroblast", 0.0]
]}

Req: Does the reported Population Membrane Permeable-Phenotype (%) of the following compound sit strictly below 6%? `CCOc1ccn(-c2ccc(F)cc2)c(=O)c1C(=O)Nc1ccc(Oc2ccnc(N)c2Cl)c(F)c1`
Resp: 1.0

====

Test system: U2OS
Assay: Multiplex assay against U2OS
Type: toxicity, cell-based
Conditions: human, 48 h, 1 µM, compound concentration 1 uM, replicate 1
The threshold is inclusive: Population Pyknosed Nuclei (%) of exactly 7% counts as Condition met; values below receive Condition not met.

Example cases with answers are listed next.
{"columns": ["compound", "system", "class-assignment"],
 "data": [
  ["CCCc1cc(C)[nH]c(=O)c1CNC(=O)c1cc(-c2ccc(N3CCN(C(C)C)CC3)nc2)cc2c1cnn2C(C)C", "U2OS", "Condition met"],
  ["Oc1cccc(-c2nc(N3CCOCC3)c3oc4ncccc4c3n2)c1 [PI-103]", "U2OS", "Condition met"],
  ["C[C@@H](Oc1cc(-n2cnc3ccc(CN4CCN(C)CC4)cc32)sc1C(N)=O)c1ccccc1C(F)(F)F [GSK-461364]", "U2OS", "Condition met"],
  ["CN(c1cc(C(F)(F)F)nc(OCCC(=O)O)n1)c1cccc2c1CCC2", "U2OS", "Condition not met"],
  ["CN1C(=O)[C@@H](NC(=O)c2cc3ccccc3[nH]2)N=C(c2ccccc2)c2ccccc21 [DEVAZEPIDE]", "U2OS", "Condition met"],
  ["Cl.NC[C@@H]1O[C@H](C23CC4CC(CC(C4)C2)C3)Cc2c1ccc(O)c2O", "U2OS", "Condition met"]
]}

Req: Record CC(C)[C@H](CO)Nc1nc(Nc2cccc(Cl)c2)c2ncn(C(C)C)c2n1 [PURVALANOLA] ; criterion: Population Pyknosed Nuclei (%) no lower than 7%. Met?
Resp: Condition not met

Req: Record `Cc1ccc(S(=O)(=O)NC2c3ccccc3Oc3ccccc32)cc1` ; criterion: Population Pyknosed Nuclei (%) no lower than 7%. Met?
Resp: Condition not met

Req: Record `CC(C)c1cc(Nc2nc(N3CCC[C@H](N)C3)ncc2C(N)=O)cc(C(C)C)n1` ; criterion: Population Pyknosed Nuclei (%) no lower than 7%. Met?
Resp: Condition met

Req: Record CC(Cc1ccc(O)c(O)c1)C(C)Cc1ccc(O)c(O)c1 (centres undefined) [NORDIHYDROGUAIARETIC ACID] ; criterion: Population Pyknosed Nuclei (%) no lower than 7%. Met?
Resp: Condition met

Req: Record `CC(/C=C1\SC(=S)N(CCCC(=O)Nc2ccc(C(=O)O)c(O)c2)C1=O)=C\c1ccccc1` ; criterion: Population Pyknosed Nuclei (%) no lower than 7%. Met?
Resp: Condition not met

====

Tested on: HEK-293T
Assay: Multiplex assay against HEK293T
Format: toxicity, cell-based
Settings: human, 48 h, 10 µM, compound concentration 10 uM, replicate 1
reported-endpoint: Population Membrane Permeable-Phenotype (%)

Check out these entries, answers already filled in.
{"columns": ["compound", "value-observed"],
 "data": [
  ["CC(Cc1ccc(O)c(O)c1)C(C)Cc1ccc(O)c(O)c1 (centres undefined) [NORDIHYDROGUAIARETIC ACID]", "7%"],
  ["N#Cc1cccc(C(=O)Nc2cc(-c3ccccc3)nn2-c2ccccc2)c1", "5%"],
  ["Cc1ccc(S(=O)(=O)NC2c3ccccc3Oc3ccccc32)cc1", "2%"],
  ["CC(C)c1cc(Nc2nc(N3CCC[C@H](N)C3)ncc2C(N)=O)cc(C(C)C)n1", "0%"],
  ["CC(/C=C1\\SC(=S)N(CCCC(=O)Nc2ccc(C(=O)O)c(O)c2)C1=O)=C\\c1ccccc1", "2%"]
]}

Please give Population Membrane Permeable-Phenotype (%), item by item, for the list that follows.
1. CCCCN(CC)c1nc(C)nc2c1c(C)cn2-c1c(C)cc(C)cc1C.Cl
2. Oc1cccc(-c2nc(N3CCOCC3)c3oc4ncccc4c3n2)c1 [PI-103]
3. CCCc1cc(C)[nH]c(=O)c1CNC(=O)c1cc(-c2ccc(N3CCN(C(C)C)CC3)nc2)cc2c1cnn2C(C)C
4. CN(c1cc(C(F)(F)F)nc(OCCC(=O)O)n1)c1cccc2c1CCC2

Resp:
1. 3%
2. 0%
3. 5%
4. 1%
